- assay: Stability in mouse lung homogenate
- Format: in vitro ADME
- studyConditions: mouse, mouse lung homogenate, 37 °C; read-out: t½ in lung homogenate
parameterMeasured: half-life at 20 μM (min)
Answers are plain numbers, in min.

IN: Find the measured half-life at 20 μM of COc1cc(/C=C(\C#N)C(=O)c2ccc(Cl)cc2)ccc1O [CN-chalcone 4] and report it.
OUT: 25

----------
- assay: Stability in mouse lung homogenate
- Type: in vitro ADME
- studyConditions: mouse, mouse lung homogenate, 37 °C; read-out: Stability half-life (t1/2), lung homogenate (converted)
parameterMeasured: half-life at 20 μM (min)
Answers are plain numbers, in min.

IN: Find the measured half-life at 20 μM of COc1cc(/C=C(\C#N)C(=O)c2ccc(Cl)cc2)ccc1O and report it.
OUT: 24

----------
Field: solubility. Provide a value for each of the molecules that follow.
- assay: Thermodynamic solubility (HPLC)
- Assay type: physicochemical
- studyConditions: phosphate-buffered saline; PBS pH 7.4, 21 °C, 24 h shaking (CN-chalcone 4: 2 h, estimate); read-out: solubility in saline buffer
One number for each entry, in µM.

1. COc1cc(/C=C/C(=O)c2ccc(Cl)cc2)ccc1O
9

// moving on: another record for solubility
IN: Find the measured solubility of COc1cc(/C=C(\C#N)C(=O)c2ccc(Cl)cc2)ccc1O and report it.
OUT: 16

----------
- assay: Stability in mouse lung homogenate
- Type: in vitro ADME
- studyConditions: mouse, mouse lung homogenate, 37 °C, with 10% HP-βCD; read-out: Stability half-life (t1/2), lung homogenate, 10% β-cyclodextrine (converted)
parameterMeasured: half-life at 20 μM (min)
Answers are plain numbers, in min.

IN: Find the measured half-life at 20 μM of COc1cc(/C=C(\C#N)C(=O)c2ccc(Cl)cc2)ccc1O [CN-chalcone 4] and report it.
OUT: 36

----------
- assay: Chemical stability in PBS pH 7.4
- Assay type: physicochemical
- studyConditions: PBS with 10% HP-βCD, PBS pH 7.4 with 10% HP-βCD, 20 °C, read-out: Stability half-life (t1/2), PBS, 10% β-cyclodextrine (converted)
parameterMeasured: half-life at 10 μM (h)
Numbers only, in h.

IN: Find the measured half-life at 10 μM of COc1cc(/C=C(\C#N)C(=O)c2ccc(Cl)cc2)ccc1O and report it.
OUT: 16.3

----------
- assay: Stability in mouse lung homogenate
- Format: in vitro ADME
- studyConditions: mouse, mouse lung homogenate, 37 °C, 10% HP-βCD; read-out: half-life in lung homogenate in the presence of HP-βCD
parameterMeasured: half-life at 20 μM (min)
Numbers only, in min.

IN: Find the measured half-life at 20 μM of COc1cc(/C=C(\C#N)C(=O)c2ccc(Cl)cc2)ccc1O and report it.
OUT: 40
